system: Escherichia coli TOP10; assay: shrunken log2 fold change of peptide-encoding DNA abundance (4.5 h post-induction vs induction); higher = less antimicrobial activity (less host growth inhibition); details: time post-induction: 4.5 h; library: site-saturation at positions 5, 18, 19, 20
Provide the recorded shrunken log2 fold change for the entries that follow.
Answer with a bare number; do not write a unit.

Input: For RRIRIRPPRLPRPRPRPCWGPRP , what is its reported shrunken log2 fold change?
Output: 0.162

Input: Follow-up item: RRIRTRPPRLPRPRPRPEALPRP
Output: 0.0496

Input: Could you do the same for RRIRVRPPRLPRPRPRPVCYPRP , please?
Output: 0.0382

Input: How about this sequence: RRIRYRPPRLPRPRPRPCGAPRP
Output: -0.324

Input: Follow-up item: RRIRVRPPRLPRPRPRPNSIPRP
Output: 0.0266

Input: Similarly, RRIRFRPPRLPRPRPRPEIDPRP ?
Output: 0.0823

Input: Next record, please: RRIRQRPPRLPRPRPRPARMPRP
Output: 0.195

Input: Repeat with RRIRPRPPRLPRPRPRPCAQPRP
Output: -0.119

Input: Again, but for RRIRDRPPRLPRPRPRPIMLPRP
Output: -0.0957

Input: Consider next the sequence RRIRVRPPRLPRPRPRPKVNPRP in the same way.
Output: -0.288

Input: Entry RRIRDRPPRLPRPRPRPRNKPRP please
Output: -0.014

Input: Continue with RRIRYRPPRLPRPRPRPVWEPRP
Output: -0.3

Input: Also RRIRKRPPRLPRPRPRPECMPRP ?
Output: 1.58

Input: Consider next the sequence RRIRTRPPRLPRPRPRPDADPRP in the same way.
Output: 0.0357

Input: Also, RRIRWRPPRLPRPRPRPYDLPRP please.
Output: -0.021

Input: Similarly, RRIRNRPPRLPRPRPRPRRKPRP ?
Output: 0.0625

Input: Note, next up: RRIRMRPPRLPRPRPRPTQAPRP
Output: 0.0839

Input: Repeat for the following sequence: RRIRARPPRLPRPRPRPDCEPRP
Output: 1

Input: Now the same for RRIRYRPPRLPRPRPRPSNIPRP
Output: -1.25

Input: Next sequence up: RRIRLRPPRLPRPRPRPPNVPRP
Output: 0.0883

Input: Next up: RRIRYRPPRLPRPRPRPYFKPRP
Output: -1.83

Input: Could you do the same for RRIRQRPPRLPRPRPRPDFWPRP , please?
Output: 0.0103

Input: RRIRDRPPRLPRPRPRPHQAPRP ?
Output: -0.0175

Input: RRIRWRPPRLPRPRPRPEHIPRP ?
Output: -0.14

Input: Thanks! And RRIRERPPRLPRPRPRPHYPPRP ?
Output: -0.649

Input: Another sequence to look at: RRIRTRPPRLPRPRPRPAYYPRP
Output: 0.0141

Input: Consider next the sequence RRIRTRPPRLPRPRPRPNGLPRP in the same way.
Output: -0.00146

Input: Moving on to RRIRIRPPRLPRPRPRPCKSPRP
Output: -0.133

Input: Same for RRIRSRPPRLPRPRPRPSDYPRP
Output: -0.87

Input: Also, RRIRIRPPRLPRPRPRPQLDPRP please.
Output: -0.138

Input: RRIRWRPPRLPRPRPRPSMMPRP ?
Output: 0.157

Input: Another: RRIRGRPPRLPRPRPRPASCPRP
Output: 1.06

====

Please respond with reported shrunken log2 fold change for every item in the list.
test system: Escherichia coli TOP10; assay: shrunken log2 fold change of peptide-encoding DNA abundance (4.5 h post-induction vs induction); higher = less antimicrobial activity (less host growth inhibition); conditions: time post-induction: 4.5 h; library: site-saturation at positions 5, 18, 19, 20
The answer should be written as a number, with no unit following it.

Input: What does the record list as shrunken log2 fold change for RRIRMRPPRLPRPRPRPSHTPRP ?
Output: 0.0597

Input: Same lookup for RRIRCRPPRLPRPRPRPQLDPRP , please.
Output: -0.142

Input: How about RRIRARPPRLPRPRPRPNHAPRP ?
Output: 0.209

Input: Now the sequence RRIRRRPPRLPRPRPRPVTNPRP
Output: 0.266

Input: What do we get for RRIRCRPPRLPRPRPRPHDRPRP ?
Output: -0.0905

Input: Param item: RRIRCRPPRLPRPRPRPKYGPRP
Output: 0.0136

Input: Field entry: RRIRPRPPRLPRPRPRPGESPRP
Output: -0.0364

Input: Repeat for the following sequence: RRIRKRPPRLPRPRPRPIPGPRP
Output: -0.0379

Input: // repeat for RRIRYRPPRLPRPRPRPWRNPRP and report
Output: -0.00674

Input: Check RRIRTRPPRLPRPRPRPPEGPRP too.
Output: 0.308

Input: Entry to check: RRIRGRPPRLPRPRPRPHCEPRP
Output: 0.22

Input: Moving on to RRIRERPPRLPRPRPRPLTEPRP
Output: -0.298

Input: Now consider RRIRIRPPRLPRPRPRPMWWPRP and answer again.
Output: 0.141

Input: Another: RRIRPRPPRLPRPRPRPWWTPRP
Output: -0.311

Input: Input RRIRARPPRLPRPRPRPFHQPRP
Output: -0.211

====

tested on: Escherichia coli TOP10; test: shrunken log2 fold change of peptide-encoding DNA abundance (4.5 h post-induction vs induction); higher = less antimicrobial activity (less host growth inhibition); conditions: time post-induction: 4.5 h; library: site-saturation at positions 5, 18, 19, 20;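 note: peptides expressed intracellularly from a pBAD plasmid library in pooled LB shake-flask culture, induced with 0.3% L-arabinose, DNA abundance read by NGS, three biological replicates, DESeq2 with apeglm shrinkage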
RECORDED METRIC: shrunken log2 fold change
Just the number.

Input: GET /values?readout=shrunken log2 fold change&item= RRIRHRPPRLPRPRPRPISVPRP
Output: -0.00149

Input: For RRIRTRPPRLPRPRPRPTVNPRP then?
Output: -0.217

Input: Same for RRIRVRPPRLPRPRPRPFHHPRP
Output: -0.182

Input: Input RRIRDRPPRLPRPRPRPILFPRP
Output: -0.185

Input: Further, for RRIRARPPRLPRPRPRPLQNPRP ?
Output: 0.698

Input: Now try RRIRFRPPRLPRPRPRPQWSPRP .
Output: -0.485

Input: Ok, now RRIRWRPPRLPRPRPRPTKDPRP
Output: 0.214

Input: Also, RRIRNRPPRLPRPRPRPRPFPRP please.
Output: 0.472

Input: Same lookup for RRIRDRPPRLPRPRPRPAKGPRP , please.
Output: -0.0222

Input: Input RRIRWRPPRLPRPRPRPHKYPRP
Output: -0.652

Input: Would you kindly repeat that for RRIRARPPRLPRPRPRPVDIPRP ?
Output: 0.135

Input: Would you kindly repeat that for RRIRFRPPRLPRPRPRPTKRPRP ?
Output: 0.269

Input: Let us now turn to RRIRYRPPRLPRPRPRPWATPRP
Output: -0.379

Input: Moving on to RRIRNRPPRLPRPRPRPGFSPRP
Output: 0.0167

Input: Can you check RRIRSRPPRLPRPRPRPELGPRP next?
Output: 0.547

Input: // same read-out, input: RRIRARPPRLPRPRPRPWQDPRP
Output: 0.0326

Input: Another sequence to look at: RRIRHRPPRLPRPRPRPMNEPRP
Output: -0.275

Input: What do you have for RRIRHRPPRLPRPRPRPLAPPRP ?
Output: 0.196

Input: Moving on to the next sequence: RRIRRRPPRLPRPRPRPFLIPRP
Output: 1.61

Input: # repeat for RRIRDRPPRLPRPRPRPFCDPRP
Output: 0.167

Input: Okay, and RRIRARPPRLPRPRPRPMHTPRP ?
Output: 0.261

Input: Now the sequence RRIRYRPPRLPRPRPRPFRCPRP
Output: 0.0856

Input: Repeat for the following sequence: RRIRWRPPRLPRPRPRPSNSPRP
Output: -0.498

Input: For RRIRHRPPRLPRPRPRPDNHPRP then?
Output: -0.323

Input: Check RRIRTRPPRLPRPRPRPVTEPRP too.
Output: 0.0394

Input: Please give the result for RRIRYRPPRLPRPRPRPVNTPRP too.
Output: -0.473

Input: Would you kindly repeat that for RRIRIRPPRLPRPRPRPHYQPRP ?
Output: -0.463

Input: Another sequence to look at: RRIRVRPPRLPRPRPRPCKTPRP
Output: -0.00208

Input: Quick one: RRIRTRPPRLPRPRPRPWGNPRP
Output: -0.602

Input: Next sequence: RRIRLRPPRLPRPRPRPGWVPRP
Output: 0.117

Input: Same question, RRIRTRPPRLPRPRPRPMSKPRP this time
Output: -0.0499

Input: Then this sequence: RRIRNRPPRLPRPRPRPVPDPRP
Output: -0.0278
